- study system: acetylpolyamine amidohydrolase (the present enzyme, product purified to homogeneity) (Mycoplana ramosa, UniProt Q48935)
- Construct: novel acetylpolyamine amidohydrolase of the present invention accumulated within the grown cells; made in house; host or cells: Mycoplana (natural producer)
- Sequence (Q48935 whole entry): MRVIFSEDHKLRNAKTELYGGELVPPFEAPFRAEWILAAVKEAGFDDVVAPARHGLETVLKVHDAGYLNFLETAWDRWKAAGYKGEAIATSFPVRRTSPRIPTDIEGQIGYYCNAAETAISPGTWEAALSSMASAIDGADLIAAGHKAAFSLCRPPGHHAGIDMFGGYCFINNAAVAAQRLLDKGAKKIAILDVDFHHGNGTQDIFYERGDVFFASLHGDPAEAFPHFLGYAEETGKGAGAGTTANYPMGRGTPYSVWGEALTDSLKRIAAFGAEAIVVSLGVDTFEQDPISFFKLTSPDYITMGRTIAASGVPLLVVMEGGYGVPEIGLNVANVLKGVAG
- assay overview: Effects of various compounds upon enzyme activity, product purified to homogeneity (Method 1)
- Assay type: biochemical, Mycoplana bullata
- protocol conditions: purified to homogeneity
measured parameter: Inhibition of the present enzyme (in words)

>>> val("O=[N+]([O-])[O-].[Ag+] [AgNO3]")
"inhibited"
>>> val("[Mg+2] [Mg^2+]")
"inhibited"
>>> val("O=S(=O)(F)Cc1ccccc1 [Phenylmethanesulfonyl fluoride]")
"slightly inhibited"
>>> val("O=C(O)c1cc[c]([Hg][Cl])cc1 [pCMB, -p(Chloromercuri)benzoic acid]")
"slightly inhibited"

----------
- study system: acetylpolyamine amidohydrolase (the present enzyme, product purified to homogeneity) (Mycoplana ramosa)
- Construct: novel acetylpolyamine amidohydrolase of the present invention accumulated within the grown cells; made in house; host or cells: Mycoplana (natural producer)
- assay overview: Enzyme activity on acetylpolyamine substrates, product purified to homogeneity (Method 2 / Method 3)
- Format: biochemical, Mycoplana bullata
- protocol conditions: pH 9.0
Vmax, Mycoplana bullata enzyme by entry:
measured parameter: Vmax, Mycoplana bullata enzyme

>>> val("CC(=O)NCCCNCCCCNCCCN")
"7.7 u/mg"
>>> val("CC(=O)NCCCNCCCCN")
"20.5 u/mg"
>>> val("CC(=O)NCCCCCN")
"18.8 u/mg"
>>> val("CC(=O)NCCCCNCCCN")
"19.8 u/mg"

----------
- study system: acetylpolyamine amidohydrolase (the present enzyme, partially purified product) (Mycoplana ramosa, UniProt Q48935)
- Construct: novel acetylpolyamine amidohydrolase of the present invention accumulated within the grown cells; made in house; host or cells: Mycoplana (natural producer; cells grown in culture)
- Sequence (Q48935 whole entry): as above
- assay overview: Enzyme activity on acetylpolyamine substrates, partially purified product (substrate specificity, optimum pH/temperature, Km)
- Assay type: biochemical, Mycoplana bullata
- protocol conditions: pH 7.0, activity against acetylputrescine defined as 100
Overview of recorded Relative activity, the present enzyme for various compounds
measured parameter: Relative activity, the present enzyme (%)

>>> val("CC(=O)NCCCCNCCCN [N^8 -Acetylspermidine]")
51
>>> val("CC(=O)NCCCNCCCCNCCCN [Acetylspermine]")
24
>>> val("CC(=O)NCCCNCCCCN [N^1 -Acetylspermidine]")
108
>>> val("CC(=O)NCCCCCN [Acetylcadaverine]")
71

----------
- study system: acetylpolyamine amidohydrolase (the present enzyme, product purified to homogeneity) (Mycoplana ramosa, UniProt Q48935)
- Construct: novel acetylpolyamine amidohydrolase of the present invention accumulated within the grown cells; made in house; host or cells: Mycoplana (natural producer)
- assay overview: Enzyme activity on acetylpolyamine substrates, product purified to homogeneity (Method 2 / Method 3)
- Format: biochemical, Mycoplana bullata
- protocol conditions: phosphate buffer pH 9.0, substrate 0.833 mM, acetylputrescine = 100
Measured Relative activity, Mycoplana bullata enzyme by item
measured parameter: Relative activity, Mycoplana bullata enzyme

>>> val("CC(=O)NCCCCCN")
"72%"
>>> val("CC(=O)NCCCNCCCCNCCCN")
"37%"
>>> val("CC(=O)NCCCNCCCCN")
"61%"
>>> val("CC(=O)NCCCCNCCCN")
"60%"

----------
The following compounds are shown together with reported Optimum pH values.
- study system: acetylpolyamine amidohydrolase (the present enzyme, partially purified product) (Mycoplana ramosa)
- Construct: novel acetylpolyamine amidohydrolase of the present invention accumulated within the grown cells; made in house; host or cells: Mycoplana (natural producer; cells grown in culture)
- assay overview: Enzyme activity on acetylpolyamine substrates, partially purified product (substrate specificity, optimum pH/temperature, Km)
- Type: biochemical, Mycoplana bullata
- protocol conditions: pH 6 to 10, bis-Tris propane buffer, per substrate
measured parameter: Optimum pH

>>> val("CC(=O)NCCCCNCCCN [N^8 -Acetylspermidine]")
8
>>> val("CC(=O)NCCCNCCCCN [N^1 -Acetylspermidine]")
8
>>> val("CC(=O)NCCCNCCCCNCCCN [Acetylspermine]")
8
>>> val("CC(=O)NCCCCCN [Acetylcadaverine]")
9
